Would you mind telling me the reported folding stability dG of each entry?
B1: HEEH_KT_rd6_0790 (parent)
chain: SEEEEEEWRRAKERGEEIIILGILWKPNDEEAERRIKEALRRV

# Variants of: B1
# Assay Info: folding stability dG (cDNA display proteolysis); higher = more stable
# Measurement Conditions: PBS, room temperature
A number alone suffices; assume kcal/mol.

Query: Entry under review: A39P . Reported folding stability dG?
Response: 0.322

Query: Entry under review: A39W . Reported folding stability dG?
Response: 1.7

Query: Entry under review: E7F . Reported folding stability dG?
Response: 2.91

Query: Entry under review: I18Q . Reported folding stability dG?
Response: 1.3

Query: Entry under review: W25H . Reported folding stability dG?
Response: 0.716

Query: Entry under review: A11R . Reported folding stability dG?
Response: 1.62

Query: Entry under review: G15D . Reported folding stability dG?
Response: 1.25

Query: Entry under review: P27N . Reported folding stability dG?
Response: 1.22

Query: Entry under review: E7V . Reported folding stability dG?
Response: 2.09

Query: Entry under review: R14P . Reported folding stability dG?
Response: 1.09

Query: Entry under review: E3W . Reported folding stability dG?
Response: 2.5

Query: Entry under review: K12E . Reported folding stability dG?
Response: 0.988

Query: Entry under review: G15R . Reported folding stability dG?
Response: 1.66

Query: Entry under review: E30Q . Reported folding stability dG?
Response: 1.94

Query: Entry under review: K37D . Reported folding stability dG?
Response: 1.93

Query: Entry under review: V43R . Reported folding stability dG?
Response: 2.75

Query: Entry under review: A39L . Reported folding stability dG?
Response: 2.06

Query: Entry under review: I19H . Reported folding stability dG?
Response: 1.43

Query: Entry under review: S1K . Reported folding stability dG?
Response: 2.1

Query: Entry under review: R10I . Reported folding stability dG?
Response: 1.8

Query: Entry under review: R34P . Reported folding stability dG?
Response: 0.726

Query: Entry under review: K37I . Reported folding stability dG?
Response: 2.56
